Tested on: L1210 leukemia ip in BDF1 mice, survival T/C
Assay: NCI In Vivo Anticancer Drug Screen. Data for tumor model L1210 Leukemia (intraperitoneal) in B6D2F1 (BDF1) mice
Conditions: endpoint: mean survival time; dose: 100.0 mg/kg/injection; schedule: Q01DX001 (ip); vehicle: saline with Tween-80; higher = longer survival
Experimental: The antitumor activity of compounds was measured in mice bearing transplantable tumors. Survival or tumor size were measured and the results are expressed as the measurement made in the treated group (T) divided by the measurement made in the vehicle treated control group (C). The tumor model used in this assay is L1210 Leukemia (intraperitoneal) in B6D2F1 (BDF1) mice
Toxic doses and inconclusive results are not listed.

| molecule | T/C |
| --- | --- |
| CCOC(=O)CCC(NC(=O)c1cnc(N)s1)C(=O)OCC (stereo not drawn) | 97 % of control |
| Nc1ccnc(OCc2ccccc2)n1 | 100 % of control |
| COc1cc(C)ccc1I | 100 % of control |
| CCCCNC(=O)CSc1cc(Cl)c(Cl)cc1Cl | 91 % of control |
| NC(Cc1cccnc1)C(=O)O (stereo not drawn) | 109 % of control |
| Cc1nn(-c2ccc(Cl)cc2)c(C)c1N=O | 104 % of control |
| CC(=O)c1c(C)[nH]c2ccccc12 | 101 % of control |
| COc1ncnc2c1nnn2C1OC(CO)C(O)C1O (stereo not drawn) | 104 % of control |
| Cc1cc(C)c2c(C#N)cn(-c3cccc([N+](=O)[O-])c3)c2n1 | 103 % of control |
| CCOC(=O)c1ccc(NC(=O)Nc2cccc3c(O)cccc23)cc1 | 86 % of control |
| O=C(O)c1ccc(NCc2cccc(NCCCc3ccccc3)c2)cc1 | 92 % of control |
| Nc1ccnc(SCc2ccccc2)n1 | 90 % of control |
| O=C(Nc1ccc(Cl)cc1[N+](=O)[O-])Oc1ccc(-c2ccccc2)cc1 | 97 % of control |

---

System: L1210 leukemia ip in BDF1 mice, survival T/C
Experiment: NCI In Vivo Anticancer Drug Screen. Data for tumor model L1210 Leukemia (intraperitoneal) in B6D2F1 (BDF1) mice
Settings: endpoint: mean survival time; dose: 200.0 mg/kg/injection; schedule: Q04DX003 (ip); vehicle: saline sonified; higher = longer survival
Method: The antitumor activity of compounds was measured in mice bearing transplantable tumors. Survival or tumor size were measured and the results are expressed as the measurement made in the treated group (T) divided by the measurement made in the vehicle treated control group (C). The tumor model used in this assay is L1210 Leukemia (intraperitoneal) in B6D2F1 (BDF1) mice
Inconclusive results and toxic doses are left out.
Measured T/C accompanies every entry in the list below.
quantity_kind: T/C

| molecule | test_result |
| --- | --- |
| Clc1cc2c(cc1CO/N=C\c1ccc3c(c1)OCO3)OCO2 | 88 % of control |
| CCCC#CCOCC(O)CCl (stereo not given) | 94 % of control |
| Cc1ccc(C(O)(c2ccccc2)C2C(c3ccccc3)N2C2CCCCC2)cc1 (stereo not given) | 87 % of control |
| NSc1nc2ccccc2s1 | 96 % of control |
| CCOC(=O)C(C1=NC(C)(C)CC(C)O1)C1CCCCC1 (stereo not given) | 102 % of control |

---

Test system: L1210 leukemia ip in BDF1 mice, survival T/C
Assay: NCI In Vivo Anticancer Drug Screen. Data for tumor model L1210 Leukemia (intraperitoneal) in B6D2F1 (BDF1) mice
Conditions: endpoint: mean survival time; dose: 300.0 mg/kg/injection; schedule: Q01DX001 (ip); vehicle: carboxymethylcellulose (CMC)
Toxic doses and inconclusive results are not listed. Rule as the data show it: active = T/C of 150% or more; inactive = T/C below 125%.
Outcome codes: yes (1) = active, no (0) = inactive

| molecule | class |
| --- | --- |
| O=C(Nc1ccc(C2=NCCN2)cc1)Nc1cccc(NC(=O)Nc2ccc(C3=NCCN3)cc2)c1 | yes (1) |
| O=C(Nc1ccc(Cl)cc1)Nc1ncn[nH]1 | no (0) |
| CCOC(=O)N/N=C/c1c(F)cccc1Cl | no (0) |
| CCC(CC)NCC(C)OC(=O)c1ccc([N+](=O)[O-])cc1 (stereo unspecified) | no (0) |
| O=NN1C(=O)N[C@@H]2[C@H]1CS[C@@H]2CCCCC(=O)O | no (0) |
| Clc1ccc2c3c(cccc13)CC2 | no (0) |
